Kindly state kon for each of the entries shown.
# TARGET DESC: T1, human GFRα3 expressed with a C-terminal myc-myc-hexahistidine tag (human, UniProt O60609 32-374, biotinylated (sites not given) in ELISA format 2 and in the Octet cross-competition; not in SPR)
# T1 construct: also called hGFRα3-mmh; hGFRα3-mmH
# T1 sequence (O60609 other isoform, or with tags, fused parts or gaps limits assumed): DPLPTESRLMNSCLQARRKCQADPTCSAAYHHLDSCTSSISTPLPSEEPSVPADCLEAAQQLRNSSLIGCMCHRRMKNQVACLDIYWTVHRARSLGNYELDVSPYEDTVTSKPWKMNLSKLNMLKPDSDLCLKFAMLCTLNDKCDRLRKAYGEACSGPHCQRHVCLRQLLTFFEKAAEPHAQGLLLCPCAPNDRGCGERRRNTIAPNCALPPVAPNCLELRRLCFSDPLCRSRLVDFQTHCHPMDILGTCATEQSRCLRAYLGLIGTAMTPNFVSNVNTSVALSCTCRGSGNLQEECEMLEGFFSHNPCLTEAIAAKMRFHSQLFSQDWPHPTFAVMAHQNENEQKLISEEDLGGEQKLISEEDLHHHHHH
# EXPERIMENT SUMMARY: SPR, Ab captured, 25C
# Excerpt: […]
Numbers only, in M⁻¹ s⁻¹.

Example entries begin here.
{"BINDER": "H4H2291S (antibody, human IgG4, V domains shown, human IgG4 Fc (H4H)) VH: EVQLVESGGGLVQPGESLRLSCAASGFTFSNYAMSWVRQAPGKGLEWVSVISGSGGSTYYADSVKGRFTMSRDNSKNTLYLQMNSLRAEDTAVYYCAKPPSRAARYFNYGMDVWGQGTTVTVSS VL: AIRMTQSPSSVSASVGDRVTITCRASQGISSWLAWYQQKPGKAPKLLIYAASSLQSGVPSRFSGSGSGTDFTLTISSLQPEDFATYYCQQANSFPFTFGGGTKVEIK", "UNITS LABEL": "M⁻¹ s⁻¹", "kon": 418000}
{"BINDER": "H4H2342P (antibody, human IgG4, V domains shown, human IgG4 Fc (H4H)) VH: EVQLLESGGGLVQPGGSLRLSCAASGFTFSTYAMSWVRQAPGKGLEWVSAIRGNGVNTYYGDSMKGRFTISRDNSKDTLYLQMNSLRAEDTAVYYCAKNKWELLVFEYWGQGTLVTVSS VL: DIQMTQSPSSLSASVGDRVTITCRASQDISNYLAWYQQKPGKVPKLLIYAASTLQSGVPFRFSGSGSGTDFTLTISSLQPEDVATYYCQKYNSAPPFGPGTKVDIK", "UNITS LABEL": "M⁻¹ s⁻¹", "kon": 186000}

Next up:
IN: Return kon for the following binder: H4H2352S (antibody, human IgG4, V domains shown, human IgG4 Fc (H4H); also called H4H2352S-1) VH: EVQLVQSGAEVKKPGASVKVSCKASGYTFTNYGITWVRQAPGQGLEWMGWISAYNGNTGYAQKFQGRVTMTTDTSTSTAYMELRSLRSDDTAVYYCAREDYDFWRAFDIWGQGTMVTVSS VL: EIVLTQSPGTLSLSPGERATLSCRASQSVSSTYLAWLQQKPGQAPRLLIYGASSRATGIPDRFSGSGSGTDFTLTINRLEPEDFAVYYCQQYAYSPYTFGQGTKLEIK
OUT: 709000

Reference for the values: patent US20140056903A1
